List of solubility values.
test: Kinetic solubility by laser nephelometry; format: physicochemical; details: phosphate buffer with 3% DMSO, aqueous buffer, kinetic from dmso stock; phosphate buffer pH 7.4, 3% DMSO; read-out: Nephelometric solubility at pH = 7.4
State the answer as a number, implicitly in µg/mL.

compound	solubility / µg/mL
CN(CC(O)CO)C(=O)c1ccc2c(c1)CC[C@@H]1[C@@H]2CC[C@]2(C)C(c3cncc(F)c3)=CC[C@@H]12 (mixture of isomers) [Example 35]	22
CC1(C)CC[C@@]2(CC[C@H]3[C@@H]4CCc5cc(C(N)=O)ccc5[C@H]4CC[C@@]32C)OC1=O [EM-1404, reference compound]	18

Now take the following compound into account.
Given C[C@]12CC[C@@H]3c4ccc(C(=O)NC[C@H](O)CO)cc4CC[C@H]3[C@@H]1CC=C2c1cncc(F)c1 [Example 33] , state its recorded solubility. 80

Where these numbers come from: patent US9714266B2
